test: Malodor counteracting effect, scale of 0 to 5; settings: 10% in water; scale of 0 to 5, 0=none, 1=minimal effect, 5=the highest possible effect

| compound | Malodor counteracting effect, Sweat |
| --- | --- |
| COC1CCC(C(C)C)CC1 (stereo not drawn) | 4.51 |
| CCCCCCOC1CCC(C)(C)O1 (stereo not drawn) [Compound 4, 5-hexyloxy-2,2-dimethyl-tetrahydro-furan] | 4.53 |
| CCOC1C(C)CCCC1C (stereo not drawn) | 4.56 |
| CC(C)CC1OC(C)CCC1C(C)CC=O (stereo not drawn) | 4.15 |
| CC(=O)C(C)C(C)C(C)C (stereo not drawn) | 4.30 |
| CC(C)C(C)C(C)C(C)O (stereo not drawn) | 4.47 |

###

test: Percent Reduction of Malodor Intensity; settings: 10% in water
Overview of reported Percent Reduction of Malodor Intensity, Sweat across a group of molecules:
endpoint: Percent Reduction of Malodor Intensity, Sweat (%)

| molecule | display_unit | experimental_value |
| --- | --- | --- |
| CCCCCCOC1CCC(C)(C)O1 (stereo not drawn) [Compound 4, 5-hexyloxy-2,2-dimethyl-tetrahydro-furan] | % | 79 |
| COC1CCC(C(C)C)CC1 (stereo not drawn) [Compound 1, 1-methoxy-4-(methylethyl)-cyclohexane] | % | 83 |
| CC(C)C(C)C(C)C(C)O (stereo not drawn) [Compound 5, 3,4,5-trimethyl-hexan-2-ol] | % | 85 |
| CC(=O)C(C)C(C)C(C)C (stereo not drawn) [Compound 6, 3,4,5-trimethyl-hexan-2-one] | % | 83 |
| CCOC1C(C)CCCC1C (stereo not drawn) [Compound 2, 2-ethoxy-1,3-dimethyl-cyclohexane] | % | 90 |
| CC(C)CC1OC(C)CCC1C(C)CC=O (stereo not drawn) [Compound 3] | % | 86 |
